Value source: patent US20210246166A1

molecular target: recombinant human MASP2 active protease (amino acids 297-686, C-terminal His Tag) (human, UniProt O00187 297-686); experiment: cell-based or functional assay
Sequence (O00187 other isoform, or with tags, fused parts or gaps limits assumed): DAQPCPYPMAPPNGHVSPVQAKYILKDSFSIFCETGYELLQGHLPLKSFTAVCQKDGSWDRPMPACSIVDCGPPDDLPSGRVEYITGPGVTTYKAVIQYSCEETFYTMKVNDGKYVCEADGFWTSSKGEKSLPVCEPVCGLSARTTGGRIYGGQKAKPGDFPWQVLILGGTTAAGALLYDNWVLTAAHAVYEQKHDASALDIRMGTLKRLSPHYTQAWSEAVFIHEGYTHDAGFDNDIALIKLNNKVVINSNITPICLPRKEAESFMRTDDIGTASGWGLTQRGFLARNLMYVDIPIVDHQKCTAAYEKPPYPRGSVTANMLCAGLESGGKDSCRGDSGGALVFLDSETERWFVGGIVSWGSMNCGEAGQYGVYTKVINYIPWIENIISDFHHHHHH
Bridge positions count the residues as written; N and C are the ends. Square brackets hold non-standard residues; d marks the D form. Ends that are not written are not given here. Pro(4-spirocPr) = O=C(O)[C@@H]1CC2(CC2)CN1; tBuAla = CC(C)(C)C[C@H](N)C(=O)O; Pen = CC(C)(S)[C@H](N)C(=O)O; NPhGly = O=C(O)CNc1ccccc1; Sar = CNCC(=O)O
Entries annotated with measured human MASP2 IC50
Supply the numeric figure in nM, leaving out any unit text.

[NPhGly]ICSRS[tBuAla]PPI[Pen]IP-NH2 (disulfide 3-11; N-terminus assumed; SMILES CC[C@H](C)[C@H](NC(=O)CNc1ccccc1)C(=O)N[C@H]1CSSC(C)(C)[C@@H](C(=O)N[C@H](C(=O)N2CCC[C@H]2C(N)=O)[C@@H](C)CC)NC(=O)[C@H]([C@@H](C)CC)NC(=O)[C@@H]2CCCN2C(=O)[C@@H]2CCCN2C(=O)[C@H](CC(C)(C)C)NC(=O)[C@H](CO)NC(=O)[C@H](CCCNC(=N)N)NC(=O)[C@H](CO)NC1=O) [Example 311: ((N-Ph)G)-IC+SRS-((tBu)A)-PPI-(Pen)+IP-NH2] ... 49

(Q) Please look up its human MASP2 IC50: [Sar]ICSRS[tBuAla]P[Pro(4-spirocPr)]I[Pen]IP-NH2 (disulfide 3-11; N-terminus assumed; SMILES CC[C@H](C)[C@H](NC(=O)CNC)C(=O)N[C@H]1CSSC(C)(C)[C@@H](C(=O)N[C@H](C(=O)N2CCC[C@H]2C(N)=O)[C@@H](C)CC)NC(=O)[C@H]([C@@H](C)CC)NC(=O)[C@@H]2CC3(CC3)CN2C(=O)[C@@H]2CCCN2C(=O)[C@H](CC(C)(C)C)NC(=O)[C@H](CO)NC(=O)[C@H](CCCNC(=N)N)NC(=O)[C@H](CO)NC1=O)
(A) 15
